Cited source for all entries: patent US12473266B2

A collection of molecules and their measured CLint(mic)
- assay_method_text: in vitro
- condition_description: human, microsomes, 3 μM
outcome_measure: CLint(mic) (µL/min/mg)

                                item_smiles  comparison_sign  reported_value
0  Clc1ccc2c(c1)OCC(c1ccc(-c3ccccc3)cc1)=N2                =            36.6
1     Clc1ccc2nc(-c3ccc(-c4ccccc4)cc3)oc2c1                <             9.6

###

- assay_method_text: in vitro
- condition_description: human, microsomes
outcome_measure: CLint scaled at 3 μM

In [3]: df
Out[3]:
                             item_smiles   reported_value
0  Clc1ccc2nc(-c3ccc(-c4ccccc4)cc3)oc2c1  < 8.6 mL/min/kg
